The measured values listed here are drawn from patent EP1435941B1.

molecular target: phesphatidylinositol-3-kinase; experiment: PI-3 kinase enzyme inhibition; type: biochemical; details: read-out: P1-3 kinase Inhibition IC50
RESULT TYPE: IC50 (nM)
Respond numerically; units are nM and should not be typed.

Return reported IC50; argument: COC[C@H]1OC(=O)c2coc3c2[C@@]1(C)C1=C(C3=O)[C@@H]2CCC(=O)[C@@]2(C)C[C@H]1OC(C)=O [wortmannin, reference compound] 300

---

target: mTOR; experiment: mTOR enzyme inhibition; conditions: dose to cause 50% inhibition
pIC50: −log10 of the molar value.
RESULT TYPE: pIC50

- MOLECULE: "COC[C@H]1OC(=O)C(=CN(C)Cc2ccccc2)C2=C(O)C(=O)C3=C([C@H](OC(C)=O)C[C@]4(C)C(=O)CC[C@@H]34)[C@]21C"
  ASSAYED TARGET: "mTOR"
  RESULT TYPE: "pIC50"
  TEST VALUE: "< 5.52"
- MOLECULE: "COC[C@H]1OC(=O)/C(=C/SCc2ccccc2)C2=C(O)C(=O)C3=C([C@H](OC(C)=O)C[C@]4(C)C(=O)CC[C@@H]34)[C@]21C"
  ASSAYED TARGET: "mTOR"
  RESULT TYPE: "pIC50"
  TEST VALUE: "< 5.52"
- MOLECULE: "COC[C@H]1OC(=O)/C(=C/NCC(N)=O)C2=C(O)C(=O)C3=C([C@H](OC(C)=O)C[C@]4(C)C(=O)CC[C@@H]34)[C@]21C"
  ASSAYED TARGET: "mTOR"
  RESULT TYPE: "pIC50"
  TEST VALUE: "< 5.52"

Would you kindly look at the next entry?
Any idea what pIC50 was measured for COC[C@H]1OC(=O)/C(=C/NC(C)C(=O)O)C2=C(O)C(=O)C3=C([C@H](OC(C)=O)C[C@]4(C)C(=O)CC[C@@H]34)[C@]21C (stereo partly shown) ? 5.82
